Source listed as patent US20060142348A1.

Examples of compounds with documented IC50 follow.
Target: UniProtKB P43115
Sequence (P43115 1-365 isoform P43115-3): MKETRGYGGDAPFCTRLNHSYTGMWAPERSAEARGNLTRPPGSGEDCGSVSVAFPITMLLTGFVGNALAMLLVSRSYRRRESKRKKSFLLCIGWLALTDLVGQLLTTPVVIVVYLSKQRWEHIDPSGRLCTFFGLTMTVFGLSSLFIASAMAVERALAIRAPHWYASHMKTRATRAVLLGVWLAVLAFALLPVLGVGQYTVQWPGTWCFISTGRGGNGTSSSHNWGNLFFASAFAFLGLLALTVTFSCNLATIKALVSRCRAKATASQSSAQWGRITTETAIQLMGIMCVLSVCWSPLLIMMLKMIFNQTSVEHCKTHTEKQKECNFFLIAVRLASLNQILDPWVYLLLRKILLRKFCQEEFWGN
Assay: binding on prostanoid EP3 receptors (method of Abramovitz et al.)
Details: read-out: Activity (EP3 receptor binding IC50)

Completed entries (count: 3):
stdin: Need IC50, item `Cc1cn(Cc2ccc(Cl)cc2Cl)c2c(-c3nnc(NC(=O)c4cc(Cl)cc(Cl)c4)o3)cc(F)cc12`
stdout: > 10 µM

stdin: Need IC50, item `Cn1cc(Cc2ccc3ccccc3c2)c2c(-c3ccc(NS(C)(=O)=O)cc3)cccc21`
stdout: 1 to 10 µM

stdin: Need IC50, item `Cc1cn(Cc2ccc(Cl)cc2Cl)c2c(-c3cc(NS(=O)(=O)c4cc(F)c(F)cc4F)no3)cc(F)cc12`
stdout: < 1 µM

Others:
stdin: Need IC50, item `Cc1cn(Cc2ccc(F)c(F)c2)c2c(-c3ccc(NS(C)(=O)=O)cc3)cc(F)cc12`
stdout: 1 to 10 µM

stdin: Need IC50, item `Cc1cn(Cc2ccc(Cl)cc2Cl)c2c(-c3cc(NS(=O)(=O)c4ccc(Cl)c(Cl)c4)no3)cc(F)cc12`
stdout: < 1 µM

stdin: Need IC50, item `Cc1cn(Cc2ccc(Cl)cc2Cl)c2c(-c3nnc(NC(=O)C(F)(F)F)o3)cc(F)cc12`
stdout: 1 to 10 µM

stdin: Need IC50, item `Cc1cn(Cc2ccc(Cl)cc2Cl)c2c(-c3nnc(NC(=O)c4ccc(F)cc4)o3)cc(F)cc12`
stdout: 1 to 10 µM

stdin: Need IC50, item `Cn1cc(Cc2ccc3ccccc3c2)c2c(-c3cc(N)nn3S(=O)(=O)c3cc(Cl)c(Cl)s3)cccc21`
stdout: 1 to 10 µM
